Where do the numbers come from? From the supplement of paper PMC12783771.

B1: library; numbered along this chain (parent)
chain: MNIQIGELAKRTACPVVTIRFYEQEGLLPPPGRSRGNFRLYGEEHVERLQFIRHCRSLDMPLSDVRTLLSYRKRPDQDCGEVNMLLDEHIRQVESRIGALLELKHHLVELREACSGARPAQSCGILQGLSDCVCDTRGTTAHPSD

Variants of: B1
Assay: sfGFP reporter fluorescence (15 h) (µM FITC); higher = stronger transcriptional activation
Details: library round: Round 0; ligand: 1 µM Pb
REPORTED_METRIC: sfGFP reporter fluorescence
// return a plain number; no unit text

MNIQIGELAKRTACPVVTIRFYEQEGLLPPPGRSRGNFRLYGEEHVERLQFIRHCRSLDMPLSDVRTLLSYRKRPDQDCGEVNMLLDEHIRQVISRIGALLELKHHLVELREACSGARPAQSCGILQGLSDCVCDTRGTTAHPSD [E94I] :: 0.0801
MNIQIGELAKRTACPVVTIRFYEQEGLLPPPGRSRGNFRLYGEEHVERLQFIRHCRSLDMPLSDVRTLLSYRKRPDQDCGEVNMLLDEHIRQVESRIGALLELKHHLVELRTACSGARPAQSCGILQGLSDCVCDTRGTTAHPSD [E112T] :: 0.0804
MNIQIGELAKRTACPVVTIRFYEQEGLLPPPGRSRGNFRLYGEEHVERLQFIRHCRSLDMPLSDVRTLLSYRKRPDQDCGEVNMLLDEHIRQVESRIGALLELEHHLVELREACSGARPAQSCGILQGLSDCVCDTRGTTAHPSD [K104E] :: 0.0691

Ask: Consider the variant shown here: MNIQIGELAKRTACPVVTIRFYEQEGLLPPPGRSRGNFRLYGEEHVERLQFIRHCRSLDMPLSDVRTLLSYRKRPDQDCGEVIMLLDEHIRQVESRIGALLELKHHLVELREACSGARPAQSCGILQGLSDCVCDTRGTTAHPSD [N83I] What is its recorded sfGFP reporter fluorescence?
Reply: 0.0718

Ask: Consider the variant shown here: MNIQIGELAKRTACPVVTIRFYEQEGVLPPPGRSRGNFRLYGEEHVERLQFIRHCRSLDMPLSDVRTLLSYRKRPDQDCGEVNMLLDEHIRQVESRIGALLELKHHLVELREACSGARPAQSCGILQGLSDCVCDTRGTTAHPSD [L27V] What is its recorded sfGFP reporter fluorescence?
Reply: 0.0717

Ask: Consider the variant shown here: MNIQIGELAKRTACPVVTIRFYEQEGLLPPPGRSRGNFRLYGEEHVERLQFIRHCRSLDMPLSDVRTLLSYRKRPDQDCGEVNMLLDEHIRQVESRIGALLELKHHLLELREACSGARPAQSCGILQGLSDCVCDTRGTTAHPSD [V108L] What is its recorded sfGFP reporter fluorescence?
Reply: 0.0696

Ask: Consider the variant shown here: MNIQIGELAKRTACPVVTIRFYEQEGLLPPPGRSRGNFRLYGEEHVERLQFIRHCRSLDMPLSDVRTLLSYRKRPDQDCGEVNMLLDEHIRQVRSRIGALLELKHHLVELREACSGARPAQSCGILQGLSDCVCDTRGTTAHPSD [E94R] What is its recorded sfGFP reporter fluorescence?
Reply: 0.0803

Ask: Consider the variant shown here: MNIQIGELAKRTACPVVTIRFYEQEGLLPPPGRSRGNFRLYGEEHVERLQFIRHCRSLDMPLSDVRTLLSYRKRPDQDCGEVNMLLDEHIRQVESRIGALLELWHHLVELREACSGARPAQSCGILQGLSDCVCDTRGTTAHPSD [K104W] What is its recorded sfGFP reporter fluorescence?
Reply: 0.0795
